meta.source: paper PMC11191095

Tested on: C. auris TDG 1912
protocol_details: microbe, parasite or virus in culture
Format: cell-based, Candida auris
applied_conditions: C. auris TDG 1912; shown in µM
Where a SMILES comes first, the peptide text is derived from it.
test_readout: Modal MIC50

Asked: Give Modal MIC50 for CC[C@H](C)[C@H](N)C(=O)N[C@@H](CC(C)C)C(=O)N[C@@H](CCCCN)C(=O)N[C@@H](CCCCN)C(=O)N[C@H](C(=O)N[C@@H](Cc1c[nH]c2ccccc12)C(=O)N[C@@H](CCC(=O)O)C(=O)NCC(=O)N[C@H](C(=O)N[C@@H](CCCCN)C(=O)N[C@@H](CO)C(=O)N[C@@H](CC(C)C)C(=O)N[C@@H](Cc1ccccc1)C(N)=O)[C@@H](C)CC)[C@@H](C)CC [K3-IsCTa] (H-ILKKIWEGIKSLF-NH2)
Given back: > 79.5 µM

Asked: Given the compound CC[C@H](C)[C@H](N)C(=O)N[C@@H](CCCNC(=N)N)C(=O)NCC(=O)N[C@@H](Cc1ccc(O)cc1)C(=O)N[C@@H](CCCCN)C(=O)NCC(=O)NCC(=O)N[C@@H](Cc1ccc(O)cc1)C(=O)N[C@@H](CS)C(=O)N[C@@H](CCCCN)C(N)=O [Os(3-12)a] (H-IRGYKGGYCK-NH2) , write its reported Modal MIC50.
Given back: > 112 µM

Asked: For CC[C@H](C)[C@H](NC(=O)[C@H](C)NC(=O)CNC(=O)[C@H](C)NC(=O)[C@H](CCCCN)NC(=O)[C@H](CO)NC(=O)[C@H](C)NC(=O)[C@H](CCSC)NC(=O)CN)C(=O)N[C@@H](C)C(=O)NCC(=O)N[C@@H](CCCCN)C(=O)N[C@H](C(=O)N[C@@H](C)C(=O)N[C@@H](CCCCN)C(=O)N[C@H](C(=O)N[C@@H](C)C(=O)N[C@@H](CC(C)C)C(=O)N[C@@H](CCCCN)C(=O)N[C@@H](C)C(=O)N[C@@H](CC(C)C)C(N)=O)C(C)C)[C@@H](C)CC [DRAMP02272a] (H-GMASKAGAIAGKIAKVALKAL-NH2) , write its Modal MIC50.
Given back: > 64 µM

Asked: Give a short answer stating reported Modal MIC50 for C[C@H](NC(=O)CNC(=O)[C@H](CCCCN)NC(=O)[C@@H](N)CS)C(=O)N[C@@H](Cc1ccccc1)C(=O)N[C@@H](CCCCN)C(=O)N[C@@H](CCC(N)=O)C(=O)N[C@H](C(=O)N[C@@H](CS)C(=O)N[C@@H](CCCCN)C(=O)N[C@@H](CS)C(=O)N[C@@H](Cc1ccc(O)cc1)C(N)=O)[C@@H](C)O [Os(11-22)a] (H-CKGAFKQTCKCY-NH2; N-terminus assumed) .
Given back: > 91.7 µM

Asked: Kindly indicate its recorded Modal MIC50. Item: CC(C)C[C@H](NC(=O)[C@H](CCCCN)NC(=O)[C@H](CO)NC(=O)[C@H](CCCCN)NC(=O)[C@H](Cc1c[nH]c2ccccc12)NC(=O)[C@H](C)NC(=O)[C@H](CCCCN)NC(=O)[C@H](CCCCN)NC(=O)[C@H](CC(C)C)NC(=O)[C@H](Cc1ccccc1)NC(=O)[C@H](CO)NC(=O)CN)C(=O)N[C@@H](C)C(=O)N[C@@H](CCCCN)C(=O)N[C@@H](CCCCN)C(=O)N[C@@H](CC(C)C)C(=O)N[C@@H](CCCNC(=N)N)C(=O)N[C@@H](C)C(=O)N[C@@H](CCCCN)C(=O)NCC(N)=O [PS-PB-20a] (H-GSFLKKAWKSKLAKKLRAKG-NH2)
Given back: > 55.7 µM

* * *

Test system: C. glabrata NCPF 8018
protocol_details: microbe, parasite or virus in culture
Type: cell-based
applied_conditions: C. glabrata NCPF 8018; 90% growth inhibition; RPMI 1640 + 2% glucose, 37 °C, 20 h
Where a SMILES comes first, the peptide text is derived from it.
test_readout: Modal MIC90 (µg/mL)
Report only the number, with the unit µg/mL understood.

Asked: Input CC(C)[C@H](NC(=O)CNC(=O)[C@H](CCCNC(=N)N)NC(=O)[C@H](CCCNC(=N)N)NC(=O)[C@H](CS)NC(=O)[C@@H](NC(=O)[C@H](CS)NC(=O)[C@@H](N)CCCNC(=N)N)C(C)C)C(=O)N[C@@H](CS)C(=O)N[C@@H](CCCNC(=N)N)C(=O)N[C@@H](CS)C(=O)N[C@H](C(=O)N[C@@H](CS)C(=O)N[C@@H](CCCNC(=N)N)C(=O)N[C@@H](CCCNC(=N)N)C(N)=O)C(C)C [BTD15a] (H-RCVCRRGVCRCVCRR-NH2; N-terminus assumed) , output reported Modal MIC90.
Given back: 128

* * *

System: C. krusei NCPF 3876
protocol_details: microbe, parasite or virus in culture
Type: cell-based
applied_conditions: NCPF 3876, 20 h
Where a SMILES comes first, the peptide text is derived from it.
test_readout: Modal MIC90

Asked: Identify measured Modal MIC90 corresponding to CC(C)[C@H](NC(=O)CNC(=O)[C@H](CCCNC(=N)N)NC(=O)[C@H](CCCNC(=N)N)NC(=O)[C@H](CS)NC(=O)[C@@H](NC(=O)[C@H](CS)NC(=O)[C@@H](N)CCCNC(=N)N)C(C)C)C(=O)N[C@@H](CS)C(=O)O [ThetaDefB] (H-RCVCRRGVC-OH; N-terminus and C-terminus assumed)
Given back: > 116.4 µM

Asked: Read off the recorded Modal MIC90 for CC[C@H](C)[C@H](NC(=O)[C@@H](N)CCCCN)C(=O)N[C@@H](C)C(=O)N[C@@H](CCCCN)C(=O)N[C@H](C(=O)N[C@@H](C)C(=O)N[C@@H](CC(C)C)C(=O)N[C@@H](CCCCN)C(=O)N[C@@H](C)C(=O)N[C@@H](CC(C)C)C(N)=O)C(C)C [DRAMP02273a] (H-KIAKVALKAL-NH2)
Given back: > 117.5 µM

Asked: Please give the documented Modal MIC90 of CC[C@H](C)[C@H](NC(=O)[C@H](CCCCN)NC(=O)[C@H](CC(C)C)NC(=O)[C@H](C)NC(=O)[C@H](C)NC(=O)[C@H](CCCCN)NC(=O)[C@H](CC(C)C)NC(=O)[C@H](C)NC(=O)[C@H](CCCCN)NC(=O)CN)C(=O)NCC(=O)N[C@@H](C)C(=O)N[C@@H](CC(N)=O)C(=O)N[C@H](C(=O)N[C@@H](CC(C)C)C(=O)NCC(=O)NCC(=O)N[C@@H](C)C(=O)N1CCC[C@H]1C(=O)N[C@@H](CCC(N)=O)C(N)=O)C(C)C [CPF-P3-20a] (H-GKALKAALKIGANVLGGAPQ-NH2)
Given back: > 65.7 µM

* * *

Tested on: human erythrocytes
protocol_details: In vitro hemolytic activity
Type: cell-based
applied_conditions: human erythrocytes in PBS, 1 h, 37 °C, OD550; from dose response curves
Where a SMILES comes first, the peptide text is derived from it.
Record form. Attribute: HC10 (concentration causing 10% hemolysis). Fill in for each entry.
Please give the number followed by its unit.

Asked: Read off the recorded HC10 (concentration causing 10% hemolysis) for CC[C@H](C)[C@H](NC(=O)[C@H](Cc1c[nH]c2ccccc12)NC(=O)[C@H](CC(=O)O)NC(=O)[C@H](Cc1c[nH]c2ccccc12)NC(=O)[C@@H](NC(=O)[C@H](CCCCN)NC(=O)CN)C(C)C)C(=O)N[C@@H](CCCCN)C(=O)N[C@@H](CO)C(=O)N[C@H](C(=O)N[C@@H](C)C(=O)N[C@@H](CCCCN)C(=O)N[C@@H](CCCCN)C(=O)N[C@@H](CC(C)C)C(=O)N[C@@H](Cc1c[nH]c2ccccc12)C(=O)N[C@@H](CC(N)=O)C(N)=O)[C@@H](C)O [Opis16a] (H-GKVWDWIKSTAKKLWN-NH2)
Given back: 155 µg/mL

Asked: Dear colleague, please send me the reported HC10 (concentration causing 10% hemolysis) for CC[C@H](C)[C@H](N)C(=O)N[C@@H](CC(C)C)C(=O)N[C@@H](CCCCN)C(=O)N[C@@H](CCCCN)C(=O)N[C@H](C(=O)N[C@@H](Cc1c[nH]c2ccccc12)C(=O)N[C@@H](CCC(=O)O)C(=O)NCC(=O)N[C@H](C(=O)N[C@@H](CCCCN)C(=O)N[C@@H](CO)C(=O)N[C@@H](CC(C)C)C(=O)N[C@@H](Cc1ccccc1)C(N)=O)[C@@H](C)CC)[C@@H](C)CC [K3-IsCTa] (H-ILKKIWEGIKSLF-NH2) when you can.
Given back: 84 µg/mL

Asked: Output measured HC10 (concentration causing 10% hemolysis) for this item: CC[C@H](C)[C@H](NC(=O)[C@H](C)NC(=O)[C@H](CCCCN)NC(=O)[C@H](CCCNC(=N)N)NC(=O)[C@@H](NC(=O)[C@H](CC(C)C)NC(=O)[C@H](CO)NC(=O)[C@H](Cc1ccccc1)NC(=O)[C@H](CC(C)C)NC(=O)[C@@H](N)Cc1ccccc1)[C@@H](C)CC)C(=O)NCC(=O)NCC(=O)N[C@@H](CC(C)C)C(=O)N[C@H](C(=O)N[C@@H](CO)C(=O)N[C@@H](C)C(=O)N[C@@H](Cc1ccccc1)C(=O)N[C@@H](CCCCN)C(=O)O)[C@@H](C)CC [A3]
Given back: 9 µg/mL

Asked: Let me know recorded HC10 (concentration causing 10% hemolysis) for CC[C@H](C)[C@H](NC(=O)[C@H](C)NC(=O)[C@H](CCCCN)NC(=O)[C@@H]1CCCN1C(=O)[C@@H](NC(=O)[C@H](CC(C)C)NC(=O)[C@H](CCCCN)NC(=O)[C@H](Cc1ccccc1)NC(=O)[C@H](CC(C)C)NC(=O)[C@@H](N)Cc1ccccc1)[C@@H](C)CC)C(=O)N[C@@H](CCCCN)C(=O)N[C@@H](CCCCN)C(=O)N[C@@H](CC(C)C)C(=O)N[C@H](C(=O)N[C@@H](CO)C(=O)N[C@@H](CCCCN)C(=O)N[C@@H](Cc1ccccc1)C(=O)N[C@@H](CCCCN)C(N)=O)[C@@H](C)CC [AamAP1-Lysa] (H-FLFKLIPKAIKKLISKFK-NH2) , thanks.
Given back: 53 µg/mL
